# assay overview: TOX21_p53_BLA_p3_viability: Viability Assessment in the Tox21 HCT-116 p53 Agonism Beta-lactamase Assay, Phase 3 (AID 2283593);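 note: cells exposed to compound for 16 h before reading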
Inconclusive results are not listed. The source made the active and inactive calls. Rule for the calls: active = hit-call score of the fitted dose curve at least 0.9, where 1 is the maximum; inconclusive = response in the unintended direction; inactive = score below 0.9.
Thanks in advance; please answer with one of these: t = active, f = inactive

> print(dat)
                                   compound  label.value
1  C[C@H](NCCc1ccc(O)cc1)[C@H](O)c1ccc(O)cc1            f
2  CO/N=C(\C(=O)N[C@@H]1C(=O)N2C(C(=O)O)=C(COC(C)=O)CS[C@H]12)c1csc(N)n1 (stereo in doubt)            f
3  CC(CCc1ccc(O)cc1)NCCc1ccc(O)c(O)c1 (stereo unspecified)            f
4  CCCCCCCCCCC[C@@H](C[C@@H]1OC(=O)[C@H]1CCCCCC)OC(=O)[C@H](CC(C)C)NC=O            f
5  CC(C)C(O)(c1ccc(OC(F)(F)F)cc1)c1cncnc1 (stereo unspecified)            f

// query Called result for Cc1[nH]c(=O)c(C#N)cc1-c1ccc2nccn2c1
// result f

// query Please share the test call associated with CCCCCCOc1ccc(C(=N)N(CCCC)CCCC)c2ccccc12 .
// result t

// query Hey, what did the test say about Cc1c(C)c2c(c(C)c1OC(=O)CCC(=O)OCCO)CCC(C)(CCCC(C)CCCC(C)CCCC(C)C)O2 (stereo unspecified) ?
// result t

// query Assay outcome for CC(=O)SC[C@@H](Cc1ccccc1)C(=O)NCC(=O)OCc1ccccc1 : what was it?
// result f

// query Assay result, entry Nc1ccc(NC(=O)c2ccc(N)cc2)cc1 — outcome?
// result f

// query What outcome does the record of this test show for Cc1cc(Nc2ccc(O)cc2)ccc1N ?
// result t
